# Tested on: NOMO1
# PROCEDURE_DETAILS: cell viability relative to DMSO control; higher = less cytotoxic
# CONDITION_DESCRIPTION: RPMI 5 mM glucose + 10% FBS; 48 h; 0.569 µM
ASSAY_READOUT: cell viability (%)
I only need the number, in %, no unit after it.

Sample `NC/1=N/C(=O)N(/C=C1F)[C@H]2CS[C@H](CO)O2` — what was its cell viability? 141

Sample `C=CCc1cccc(/C=N/NC(=O)CN2CCN(Cc3ccccc3)CC2)c1O` — what was its cell viability? 114

Sample `Nc1cccc2c1CN([C@H]1CCC(=O)NC1=O)C2=O` — what was its cell viability? 98.3

Sample `COC1=C2C[C@@H](C)C[C@H](OC)[C@H](O)[C@@H](C)/C=C(\C)[C@H](OC(N)=O)[C@@H](OC)/C=C/C=C(\C)C(=O)NC(=CC1=O)C2=O` — what was its cell viability? 109

Sample `CC[C@H](C)C(=O)O[C@H]1C[C@H](O)\C=C2\C=C/[C@H](C)[C@H](CC[C@@H](O)C[C@@H](O)CC(O)=O)[C@@H]12` — what was its cell viability? 116

Sample `COC1=CC=CC(=C1N)\C2=C\C(=O)C3=C(O2)C=CC=C3` — what was its cell viability? 143

Sample `CN1\C(=C(\O)C2=C(C=CC=C2)[S+]1([O-])=O)C(=O)NC3=CC=CC=N3` — what was its cell viability? 113

Sample `CN(C)c1nc(Cc2ccc(NC(=O)c3ccc4ccccc4c3)cc2)nc(Cl)c1CC(=O)O` — what was its cell viability? 97.1
